- method summary: Drug uptake in 20 to 21 months old Wistar Han rat model of aged-induced memory deficit brain at 10 mg/kg, ip measured after 4 hrs
- Assay type: ADME, organism-based
- condition label: read-out: Drug uptake
reported endpoint: concentration at 4 h

stdin: Please look up its concentration at 4 h: C[C@H](CCC(C)(C)O)[C@H]1CC[C@H]2[C@@H]3CC=C4C[C@@](C)(O)CC[C@]4(C)[C@H]3CC[C@]12C
stdout: 3.7 µM

====

- measurement target: Glutamate NMDA receptor; GRIN1/GRIN2A (Homo sapiens, UniProt Q05586+Q12879)
- method summary: Positive allosteric modulation of recombinant human GluN1/GluN2A receptor stably expressed in HEK293 cells assessed as increase in glycine/L-glutamate-induced channel current at -70 mV holding potential by IonWork […] method relative to control
- Type: cell-based
Hi there, I'd appreciate the recorded Emax for every entry that follows.
One number for each entry, in %.

Take each entry in turn and give its Emax.
1. C[C@H](CCC1(O)CC1)[C@H]1CC[C@H]2[C@@H]3CC=C4C[C@@H](O)CC[C@]4(C)[C@H]3CC[C@]12C
2. CC(C)[C@@H](O)CC[C@@H](C)[C@H]1CC[C@H]2[C@@H]3CC=C4C[C@@](C)(O)CC[C@]4(C)[C@H]3CC[C@]12C

stdout:
[280, 200]

====

- measurement target: Glutamate NMDA receptor; GRIN1/GRIN2A (Homo sapiens, UniProt Q05586+Q12879)
- method summary: Positive allosteric modulation of recombinant human GluN1/GluN2A receptor stably expressed in HEK293 cells assessed as increase in glycine/L-glutamate-induced channel current at -70 mV holding potential by IonWork […] method
- Assay type: cell-based
Assign EC50 to each entry below.
Answers are plain numbers, in µM.

CC[C@H](O)CC[C@@H](C)[C@H]1CC[C@H]2[C@@H]3CC=C4C[C@@](C)(O)CC[C@]4(C)[C@H]3CC[C@]12C :: 0.1

Please give EC50 for each item listed below.
1. C[C@H](CC[C@@H](O)C1CC1)[C@H]1CC[C@H]2[C@@H]3CC=C4C[C@@](C)(O)CC[C@]4(C)[C@H]3CC[C@]12C
2. CC(C)[C@@H](O)CC[C@@H](C)[C@H]1CC[C@H]2[C@@H]3CC=C4C[C@@H](O)CC[C@]4(C)[C@H]3CC[C@]12C

stdout:
1. 0.077
2. 0.15

====

- measurement target: Glutamate NMDA receptor; GRIN1/GRIN2A (Homo sapiens, UniProt Q05586+Q12879)
- method summary: Positive allosteric modulation of recombinant human GluN1/GluN2A receptor stably expressed in HEK293 cells assessed as increase in glycine/L-glutamate-induced channel current at -70 mV holding potential by IonWork […] method relative to control
- Assay type: cell-based
reported endpoint: Emax (%)
Answers are plain numbers, in %.

// solved cases for Emax follow
CC[C@H](O)CC[C@@H](C)[C@H]1CC[C@H]2[C@@H]3CC=C4C[C@@](C)(O)CC[C@]4(C)[C@H]3CC[C@]12C :: 250
C[C@H](CCCO)[C@H]1CC[C@H]2[C@@H]3CC=C4C[C@@H](O)CC[C@]4(C)[C@H]3CC[C@]12C :: 290
C[C@H](CCC(C)(C)O)[C@H]1CC[C@H]2[C@@H]3CC=C4C[C@@H](O)CC[C@]4(C)[C@H]3CC[C@]12C :: 110

The record that follows has no Emax shown yet.
stdin: # lookup: Emax of CC(C)(O)CCC[C@H]1CC[C@H]2[C@@H]3CC=C4C[C@@](C)(O)CC[C@]4(C)[C@H]3CC[C@]12C
stdout: 120
